test system: A498 renal; assay: NCI-60 one-dose screen, 48 h (100 = growth as untreated, 0 = no growth, -100 = all killed); details: 10 µM unless noted
This is part of a sample that, as a whole, favours compounds with a hit. Of some 83,000 tested, about 20% had one in any assay. Activity calls are given as the source filed them. The calls were made as follows: active = growth percent below 10; inactive = the rest.
growth overview

Example entries and their recorded answers appear below.
[[record]]
compound_smiles = "COc1cccc2c1[C@H](OC)[C@]13O[C@@]1(C2=O)[C@H](O)[C@H](C)[C@@](O)(C(=O)[C@@H]1O[C@H]1C)[C@@H]3O"
experimental_result = "-82.4% (active)"

[[record]]
compound_smiles = "CCN(CC)CCOc1ccc(C(=C(C)Cc2ccc(OC)cc2)c2ccc(OCCN(CC)CC)cc2)cc1"
experimental_result = "85.7% (inactive)"

[[record]]
compound_smiles = "CS(=O)(=O)c1ccc(/C(=N/N=C(N)N)c2ccc(F)cc2)cc1"
experimental_result = "88.8% (inactive)"

[[record]]
compound_smiles = "COc1cccc(N2CCN(C3=C(Cl)C(=O)c4ncccc4C3=O)CC2)c1"
experimental_result = "104% (inactive)"


query: Tell me its growth on A498 renal: CSc1ccc(/C(=N/N=C(N)N)c2ccc(Cl)cc2)cc1
result: -21.6% (active)

query: Fill: growth (A498 renal) for this compound Cc1cc2nc(C(Cl)Cl)nc(-c3ccc(S(=O)(=O)N(C)C)cc3)n2n1
result: 90.9% (inactive)

query: Report the value of growth obtained on A498 renal for COc1ccc(/C=N/NC(=O)CSc2nc(-c3cnccn3)cc(-c3cccs3)c2C#N)cc1 .
result: 79% (inactive)
